# Test system: lambsquarters
# Assay Name: Test B pre-/postemergence herbicide test
# Type: in vivo, Chenopodium album
# Measurement Setup: 500 g ai/ha; visual rating 0-100, 0 no effect, 100 complete control; preemergence

| Molecule | Plant response rating, Lambsquarters |
| --- | --- |
| CCNC(=O)c1cccc(NC(=O)c2cn(C(C)(C)C)nc2CC)c1 [Compound 181] | 100 |
| CCn1nc(C(C)(C)C)cc1C(=O)Nc1nc(OC)cc(OC)n1 [Compound 166] | 0 |
| CCNC(=O)c1cccc(NC(=O)c2sc(C(C)(C)C)nc2CC)c1 [Compound 210] | 100 |
| COC(=O)c1cccc(NC(=O)c2sc(C(C)(C)C)nc2C)c1 [Compound 197] | 0 |

---

# Tested on: wild oat
# Assay Name: Test B postemergence herbicide test
# Format: in vivo, Avena fatua
# Measurement Setup: Postemergence, 500 g ai/ha; scale 0 (no effect) to 100 (complete control)

| Smiles Representation | Study System | Oat, Wild plant response rating |
| --- | --- | --- |
| Cc1nn(C(C)C)nc1C(=O)Nc1cc(C(=O)N(C)C)ccc1F | wild oat | 0 |
| CCc1nn(C(C)(C)C)nc1C(=S)Nc1cccc(C(=S)N(C)C)c1 | wild oat | 30 |
| CCc1nn(C(C)(C)C)nc1C(=O)Nc1cccc(C(=S)N(C)C)c1 | wild oat | 40 |
| CCOC(=O)c1cccc(NC(=O)c2nn(C(C)(C)C)nc2Br)c1 | wild oat | 60 |
| Cc1nn(C(C)C)nc1C(=O)Nc1cccc(C(=O)N2CC=CC2)c1 | wild oat | 10 |
| C=CCNC(=O)c1cccc(NC(=O)c2nn(C(C)(C)C)nc2CC)c1 | wild oat | 40 |
| CC(C)(C)n1nc(Br)c(C(=O)Nc2cccc(C(=O)NC3CC3)c2)n1 | wild oat | 60 |

---

# Tested on: common (oilseed) sunflower
# Assay Name: Test C pre-/postemergence herbicide test
# Assay type: in vivo, Helianthus annuus
# Measurement Setup: 125 g ai/ha; scale 0 (no effect) to 100 (complete control); visual, 12 to 14 days; preemergence

| Smiles Representation | Plant response rating, Sunflower |
| --- | --- |
| CCNC(=O)c1cccc(NC(=O)c2sc(C(C)(C)C)nc2C)c1 | 0 |
| CCOC(=O)c1cccc(NC(=O)c2cc(C(C)(C)C)nn2CC)c1C | 0 |
| C=CCNC(=O)c1cccc(NC(=O)c2sc(C(C)(C)C)nc2CC)c1 | 0 |
| CCn1nc(C(C)(C)C)cc1C(=O)Nc1cccc(C(N)=O)n1 | 15 |
| CCN(C)C(=O)c1cccc(NC(=O)c2cc(C(C)(C)C)nn2CC)c1 | 0 |
| C=Cn1nc(C(C)(C)C)cc1C(=O)Nc1cccc(C(C)=NO)c1 | 30 |

---

# System: goosegrass
# Assay Name: Test C pre-/postemergence herbicide test
# Format: in vivo, Eleusine indica
# Measurement Setup: 62 g ai/ha; preemergence
# Plant response rating (0 = no effect, 100 = complete control), Goosegrass values compiled below
Reported Endpoint: Plant response rating (0 = no effect, 100 = complete control), Goosegrass

| Smiles Representation | Reported Result |
| --- | --- |
| CCOC(=O)c1cc(NC(=O)c2cc(C(C)(C)C)nn2CC)ccc1OC | 30 |
| C=CCNC(=O)c1cccc(NC(=O)c2cc(C(C)(C)C)nn2CC)c1 | 60 |
| CCOC(=O)c1cccc(NC(=O)c2cc(C(C)(C)C)nn2CC)c1C | 60 |
| C=Cn1nc(C(C)(C)C)cc1C(=O)Nc1cccc(C(C)=NO)c1 | 40 |
| CCn1nc(C(C)(C)C)cc1C(=O)Nc1cccc(SC(F)(F)F)c1 | 10 |
